# experimental-details: Tmax in Sprague-Dawley rat at 5 mg/kg, po by LC-MS analysis
# Format: ADME, organism-based
# experimental-parameters: in vivo
measure: Tmax
Form entry: enter the amount, then its unit.

Record summary for O=C(CN(Cc1cccc(C(=O)O)c1)Cc1cccc(C(=O)O)c1)NO : reported Tmax = 10.2 min

###

# assay-target: Meprin A subunit beta (Homo sapiens, UniProt Q16820)
# Sequence (Q16820 whole entry): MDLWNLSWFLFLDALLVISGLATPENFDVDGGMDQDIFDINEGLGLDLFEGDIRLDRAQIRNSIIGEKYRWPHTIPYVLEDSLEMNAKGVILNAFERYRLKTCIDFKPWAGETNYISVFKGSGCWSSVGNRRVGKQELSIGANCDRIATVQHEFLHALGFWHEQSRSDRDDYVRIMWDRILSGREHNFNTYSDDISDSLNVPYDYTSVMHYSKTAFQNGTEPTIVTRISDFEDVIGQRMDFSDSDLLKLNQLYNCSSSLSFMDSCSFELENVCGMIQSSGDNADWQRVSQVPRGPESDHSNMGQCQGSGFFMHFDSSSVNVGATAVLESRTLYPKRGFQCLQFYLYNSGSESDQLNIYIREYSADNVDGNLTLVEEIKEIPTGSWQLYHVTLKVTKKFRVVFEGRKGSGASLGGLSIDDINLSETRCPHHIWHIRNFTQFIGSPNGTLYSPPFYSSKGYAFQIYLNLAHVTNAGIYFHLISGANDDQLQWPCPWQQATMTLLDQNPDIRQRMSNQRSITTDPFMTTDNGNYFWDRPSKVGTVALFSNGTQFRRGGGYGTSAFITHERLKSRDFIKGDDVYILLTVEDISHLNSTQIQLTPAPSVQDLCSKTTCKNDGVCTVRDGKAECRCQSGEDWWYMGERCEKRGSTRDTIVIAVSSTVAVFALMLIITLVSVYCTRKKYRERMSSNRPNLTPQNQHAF
Hi! Just check whether IC50 is below 500 nM. Below gives label 1, equal or above gives label 0.

Please check: IC50 for Cc1ccc(CN(CC(=O)NO)Cc2cccc(C(=O)O)c2)cc1 , strictly under 500 nM or not?
label 1

Please check: IC50 for O=C(CN(Cc1ccc(C(=O)O)cc1)Cc1ccc(C(=O)O)cc1)NO , strictly under 500 nM or not?
label 0

Please check: IC50 for COc1cc(F)c(CN(CC(=O)NO)Cc2cccc(C(=O)O)c2)c(F)c1 , strictly under 500 nM or not?
label 1

Please check: IC50 for COc1c(Cl)ccc(CN(CC(=O)NO)Cc2ccc(Cl)c(OC)c2F)c1F , strictly under 500 nM or not?
label 0

Please check: IC50 for COc1ccc(CN(CC(=O)NO)Cc2cccc(C(=O)O)c2)cc1F , strictly under 500 nM or not?
label 1

Please check: IC50 for COc1ccc(CN(CC(=O)NO)Cc2cccc(C(=O)O)c2)cc1 , strictly under 500 nM or not?
label 1

Please check: IC50 for CCCOc1cccc(CN(CC(=O)NO)Cc2cccc(C(=O)O)c2)c1 , strictly under 500 nM or not?
label 0

Please check: IC50 for O=C(CN(Cc1ccc(-c2ccccc2)cc1)Cc1cccc(C(=O)O)c1)NO , strictly under 500 nM or not?
label 0

###

# assay-target: MMP2 (Homo sapiens)
# Sequence (P08253 whole entry): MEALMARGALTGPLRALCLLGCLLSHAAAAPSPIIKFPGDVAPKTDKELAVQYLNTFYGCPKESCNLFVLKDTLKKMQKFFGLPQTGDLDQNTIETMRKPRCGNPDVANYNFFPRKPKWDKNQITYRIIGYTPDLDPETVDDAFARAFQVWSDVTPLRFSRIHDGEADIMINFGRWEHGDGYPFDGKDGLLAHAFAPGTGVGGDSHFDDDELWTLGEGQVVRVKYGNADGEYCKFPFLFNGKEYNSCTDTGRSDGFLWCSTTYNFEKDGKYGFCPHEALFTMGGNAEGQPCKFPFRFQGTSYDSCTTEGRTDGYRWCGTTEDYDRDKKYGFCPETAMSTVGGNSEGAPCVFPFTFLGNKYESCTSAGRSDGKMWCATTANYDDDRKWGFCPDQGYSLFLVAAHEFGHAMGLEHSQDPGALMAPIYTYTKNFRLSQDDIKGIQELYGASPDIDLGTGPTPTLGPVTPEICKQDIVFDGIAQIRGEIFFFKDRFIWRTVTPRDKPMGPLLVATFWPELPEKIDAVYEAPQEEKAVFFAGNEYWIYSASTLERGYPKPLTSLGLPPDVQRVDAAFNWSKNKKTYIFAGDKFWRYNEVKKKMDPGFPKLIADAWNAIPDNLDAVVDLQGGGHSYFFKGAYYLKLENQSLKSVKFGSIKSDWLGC
# experimental-details: Inhibition of human MMP2 assessed as residual activity using Mca-PLGL-(DapDnp)-AR-NH2 as substrate at 200 uM by fluorescence assay relative to control
# experimental-parameters: human MMP2 enzyme, probe Mca-PLGL-(DapDnp)-AR-NH2, read-out: Activity
Answer each item with its documented activity at 200 µM.

Record summary for O=C(CN(Cc1cccc(C(=O)O)c1)Cc1cccc(C(=O)O)c1)NO : reported activity at 200 µM = 64%

Record summary for COc1ccc(S(=O)(=O)N(CC(=O)NO)Cc2cccc(C(=O)O)c2)cc1 : reported activity at 200 µM = < 1%

Record summary for O=C(CN(Cc1ccc(Cl)c(O)c1F)Cc1ccc(Cl)c(O)c1F)NO : reported activity at 200 µM = 41%

Record summary for O=C(CN(Cc1ccc(Cl)cc1)Cc1cccc(C(=O)O)c1)NO : reported activity at 200 µM = 69%

Record summary for COc1ccc(CN(CC(=O)NO)Cc2cccc(C(=O)O)c2)cc1 : reported activity at 200 µM = 68%

Record summary for O=C(CN(Cc1ccc(F)c(O)c1F)Cc1ccc(F)c(O)c1F)NO : reported activity at 200 µM = 67%

###

# assay-target: UniProt Q16819
# Sequence (Q16819 whole entry): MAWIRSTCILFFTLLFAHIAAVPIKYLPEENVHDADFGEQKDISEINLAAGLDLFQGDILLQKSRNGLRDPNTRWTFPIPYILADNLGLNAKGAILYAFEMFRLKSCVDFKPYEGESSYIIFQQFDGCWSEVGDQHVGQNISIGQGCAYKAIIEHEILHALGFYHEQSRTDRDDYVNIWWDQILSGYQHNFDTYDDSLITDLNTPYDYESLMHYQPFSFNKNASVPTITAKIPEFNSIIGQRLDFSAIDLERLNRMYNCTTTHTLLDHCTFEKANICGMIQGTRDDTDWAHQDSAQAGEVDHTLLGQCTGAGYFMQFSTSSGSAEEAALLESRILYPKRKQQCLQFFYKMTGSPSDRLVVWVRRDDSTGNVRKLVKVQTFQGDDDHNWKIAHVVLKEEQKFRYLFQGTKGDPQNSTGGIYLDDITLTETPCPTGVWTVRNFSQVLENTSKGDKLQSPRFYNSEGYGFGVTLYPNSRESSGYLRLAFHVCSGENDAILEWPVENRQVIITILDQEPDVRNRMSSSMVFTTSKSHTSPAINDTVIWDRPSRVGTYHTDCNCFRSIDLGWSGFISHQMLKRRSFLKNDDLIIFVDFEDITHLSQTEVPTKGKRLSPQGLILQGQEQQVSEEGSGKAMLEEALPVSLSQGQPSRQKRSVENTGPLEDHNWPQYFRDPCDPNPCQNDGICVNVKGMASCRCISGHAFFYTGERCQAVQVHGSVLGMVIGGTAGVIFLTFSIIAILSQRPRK
# experimental-details: Inhibition of recombinant human meprin alpha expressed in insect cells assessed as residual activity using Abz-YVADAPK(Dnp)G-OH as substrate at 200 uM by fluorescence assay relative to control
# experimental-parameters: probe Abz-YVADAPK(Dnp)G-OH, read-out: Activity
measure: activity at 200 µM

Assay UniProt Q16819, sample O=C(CN(Cc1cccc(C(=O)O)c1)Cc1cccc(C(=O)O)c1)NO , activity at 200 µM read: < 10%
